The measured values listed here are drawn from patent US11807625B2.

Assay: PK of compound of Formula (Ia) after single subcutaneous dose of solution formulations in Wistar Han rats
Assay type: in vivo
Conditions: male, Wistar Han, rat, plasma, sc, 50 mg/kg, male Wistar Han rats, single SC 50 mg/kg, 400 mg/mL solution Y (water, PEG 300), mean ± SD, n = 4; read-out: AUC0-168 h
property label: AUC(0-t) (µM·h)

* CC(C)(C#Cc1ccc(-c2ccc(Cl)c3c(NS(C)(=O)=O)nn(CC(F)(F)F)c23)c([C@H](Cc2cc(F)cc(F)c2)NC(=O)Cn2nc(C(F)(F)F)c3c2C(F)(F)[C@@H]2C[C@H]32)n1)S(C)(=O)=O | 15.7
